- subject-of-test: NADH-ubiquinone oxidoreductase chain 1 (Bos taurus, UniProt P03887)
- Sequence (P03887 whole entry): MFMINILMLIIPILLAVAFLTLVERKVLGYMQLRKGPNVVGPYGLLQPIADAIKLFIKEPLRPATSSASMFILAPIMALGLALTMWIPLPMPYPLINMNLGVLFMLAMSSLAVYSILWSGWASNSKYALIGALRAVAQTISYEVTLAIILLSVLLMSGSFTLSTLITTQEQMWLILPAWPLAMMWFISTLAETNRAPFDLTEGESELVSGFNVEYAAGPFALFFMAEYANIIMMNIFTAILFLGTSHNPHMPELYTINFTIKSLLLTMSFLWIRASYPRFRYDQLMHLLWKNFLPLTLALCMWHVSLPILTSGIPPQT
- method-summary: Inhibition of Bos taurus (bovine) mitochodrial complex 1 isolated from heart submitochondrial particle by NADH oxidase assay
# maps each entry to its IC50
readout-kind: IC50 (nM)

>>> print(df.to_string())
                                   compound  data_value
0  CCCCCCCCCCCC[C@H](O)[C@H]1CC[C@H]([C@H](O)CCCCCCCCCCCCCCC2=C[C@H](C)OC2=O)O1 [(17R,18R,21R,22S)-reticulation-1]          16
1  CCCCCCCCCCCC[C@H](O)[C@@H]1CC[C@H]([C@H](O)CCCCCCCCCCCCC2=C[C@H](C)OC2=O)O1 (stereo in doubt; 1b) [CIS-SOLAMIN]         2.1
2  CCCCCCCCCCCC[C@@H](O)[C@H]1CC[C@H]([C@@H](O)CCCCCCCCCCCCCCC2=C[C@H](C)OC2=O)O1 [(17S, 18S, 21S, 22R)-reticulation-1]          17
3  CCCCCCCCCCCC[C@@H](O)[C@H]1CC[C@H]([C@H](O)CCCC[C@@H](O)CCCCCCCC2=C[C@H](C)OC2=O)O1 [(10S)-COROSSOLINE]           2
4  CCCCCCCCCCCC[C@@H](O)[C@H]1CC[C@H]([C@H](O)CCCC[C@H](O)CCCCCCCC2=C[C@H](C)OC2=O)O1 [COROSSOLINE]         1.5
5  CCCCCCCCCC[C@H](O)[C@H]1CC[C@H]([C@H]2CC[C@H]([C@H](O)CCCCCCCCCC[C@@H](O)CC3=C[C@H](C)OC3=O)O2)O1 [BULLATACIN]         0.8
6  CCCCCCCCCCCC[C@H](O)[C@@H]1CC[C@H]([C@H](O)CCCCCCCCCCCCC2=C[C@H](C)OC2=O)O1 (stereo in doubt; 1a) [CIS-SOLAMIN]         2.2
